These data points were gathered from patent US20210292414A1.

The entries below come with measured EC50 values attached.
- Test System: T1, hBack
- T1 chimeric human/tetraodon Sortilin extracellular region, BAP tag: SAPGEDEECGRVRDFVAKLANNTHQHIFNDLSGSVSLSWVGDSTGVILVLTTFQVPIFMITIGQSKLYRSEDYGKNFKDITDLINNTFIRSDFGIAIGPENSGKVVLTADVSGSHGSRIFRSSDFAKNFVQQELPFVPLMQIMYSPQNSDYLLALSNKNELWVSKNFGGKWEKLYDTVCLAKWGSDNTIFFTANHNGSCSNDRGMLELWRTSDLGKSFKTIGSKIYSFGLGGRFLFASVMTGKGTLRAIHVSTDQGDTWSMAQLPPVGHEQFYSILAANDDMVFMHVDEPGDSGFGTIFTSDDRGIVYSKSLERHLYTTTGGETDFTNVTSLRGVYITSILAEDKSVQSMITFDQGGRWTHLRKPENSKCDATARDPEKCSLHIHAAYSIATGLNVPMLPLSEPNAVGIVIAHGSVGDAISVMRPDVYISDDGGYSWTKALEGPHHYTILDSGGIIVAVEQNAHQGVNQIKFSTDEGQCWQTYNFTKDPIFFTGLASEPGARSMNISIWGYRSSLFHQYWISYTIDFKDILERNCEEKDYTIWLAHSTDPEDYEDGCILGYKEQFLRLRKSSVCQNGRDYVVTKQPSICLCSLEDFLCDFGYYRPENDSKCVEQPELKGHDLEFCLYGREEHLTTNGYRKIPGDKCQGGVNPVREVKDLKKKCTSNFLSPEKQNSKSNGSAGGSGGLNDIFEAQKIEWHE
- Measurement Notes: BLI (Octet384RED)
Just the number in ng/mL, nothing appended.

[
  {
    "Binder": "Antibody 6003-886 (antibody, human IgG1, V domains shown) VH: QVQLVQSGAEVKKPGASVKVSCKASGYTFTKYGISWVRQAPGQGLEWMGWISAYNGNTNYAQKLQDRVTMTTDTFTSTAYMELRSLRSDDTAVYFCARDGPLTGDFTFYGMDVWGQGTTVTVSS VL: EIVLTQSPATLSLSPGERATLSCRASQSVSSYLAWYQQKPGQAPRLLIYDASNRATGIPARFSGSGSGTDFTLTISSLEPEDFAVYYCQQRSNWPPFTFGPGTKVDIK",
    "EC50, ng/mL": 2.72
  },
  {
    "Binder": "Antibody 6003-936 (antibody, human IgG1, V domains shown) VH: EVQLVQSGAEVKKPGESLKISCKGSGYIFTSFWIGWVRQMPGKGLEWMGIIYPGDSDTRYSPSFQGQVTISADKSISTAYLQWSSLKASDTAMYYCARHSRGSFWYGAFQHWGQGTLVTVSS VL: EIVLTQSPDFQSVTPKEKVTITCRASQSIGSSLHWYQQKPDQSPKLLIKYASQSFSGVPSRFSGSGSGTDFTLTINSLEAEDAAAYYCHQSSSLPHTFGPGTKVDIK",
    "EC50, ng/mL": 2.62
  }
]

Now take the following binder into account.
Challenge: Field request: EC50 | item: Antibody 6003-799 (antibody, human IgG1, V domains shown) VH: QVQLVESGGGVVQPGRSLRLSCAASGFTFSSYGMHWVRQAPGKGLEWVTVISYDGSNKYYADSVKGRFTISRDNSKNTLYLQMNSLRAEDTAVYYCAKLTGDAFDIWGQGTMVTVSS VL: EIVLTQSPATLSLSPGERATLSCRASQSVSSYLVWYQQKPGQAPRLLIYHASNRATGIPARFSGSGSGTDFTLTISSLEPEDFAVYYCQQRSNWPRITFGQGTRLEIK
Response given: 3.2
